Test system: PPARg DBDmut:RXRa IVT, anti-PPARg (DBD mutation: PPARg1 K132A/R137A, NR concentration 270 nM, RXRa partner concentration 90 nM)
protocolNotes: PBM binding z-score (relative to random genomic background probes); higher = stronger binding; sequences stand for … in GC…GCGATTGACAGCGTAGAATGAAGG
attributeMeasured: PBM binding z-score

| sequenceInput | PBM binding z-score |
| --- | --- |
| CCAGACAGGTGAAAGGTAAGTCAGTCTGGTACGC | -0.386 |

# query: PBM binding z-score of entry GGAACGAGGGGAAGTTGATAGCAGAGTTTGATGG
0.337

====

Test system: VDR:RXRa (NR concentration 270 nM, RXRa partner concentration 90 nM)
protocolNotes: PBM binding z-score (relative to random genomic background probes); higher = stronger binding; sequences stand for … in GC…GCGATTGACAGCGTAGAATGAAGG
PBM binding z-score values, listed per item
Lab note: jot the number down without any unit.

For orientation, consider the following solved cases.
| sequenceInput | measured |
| --- | --- |
| ACACGGAGGACAAAGGTCAGAGCTACGCCAGTGA | 3.46 |
| ATCTCTAGGTAACCAAGTTCAATGAATGCCGAAC | 4.66 |
| TAGCCTAGGTCATGCGAGCCAGTATAGTGTCGGC | 1.92 |
| GTTGCTAGGTCAACTGATGGTCAGCTAAAGCTCG | 2.05 |
| GCTAGCAGGGCATTTGGGTCACTCAATGACGGGC | 2.15 |
| ACTAGTTGGGCAGCTGAGGTCACACACAATTCGG | 3.72 |
| ATCGAAAGGTCGTGAGGGGAGTATACAGAAAGGC | 3.55 |
| TGAATGAGATTATAAGATCAGGGAACGTTGCAAA | -0.491 |
| CCAGACAGGTGAAATGTAACTCAGTCTGGTACGC | 0.0659 |
| GAGACTGGGGCAAAGCAGGTTACCATAAGGTTGG | 0.398 |

# query: PBM binding z-score of entry CGTCAAAGTTCAACTAAGGAAACGTAAAGCACGC
4.16

# query: PBM binding z-score of entry TCATATAGGTAAAATGTGAAAGTCGGTGTGGTAA
0.774

# query: PBM binding z-score of entry ACTAGCAGGCCAAGTTTGGATCACTCAAACAAAG
-0.621

# query: PBM binding z-score of entry TCTCGGAGGAAACGAAGGTCAGAGCTTTCCAGAG
0.66

# query: PBM binding z-score of entry TCTTGTAGATCAACAGAGGTTAAGAAAGTGCGCT
2.03

====

PBM binding z-score values, listed per item
Test system: PXR homodimer (NR concentration 270 nM)
protocolNotes: PBM binding z-score (relative to random genomic background probes); higher = stronger binding; sequences stand for … in GC…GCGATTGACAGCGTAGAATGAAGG
Lab note: jot the number down without any unit.

# query: PBM binding z-score of entry CAATCTAGGTCACCGGAAGGTCAAAGTCCGCATG
2.44

# query: PBM binding z-score of entry AGAACGAGGGCATGCTGAGTTGATAGCAGAGTAG
0.117

# query: PBM binding z-score of entry TTACCAAGGGGAAAGGTCGTTGATGCACGCCTTG
0.149

# query: PBM binding z-score of entry CGTCCAAGGTCGGCAGGTCAGTGAAAGCGACGTG
-0.703

# query: PBM binding z-score of entry CCTCGGAGGAAAGAAGGTCAGAGCTGTCCGCTTT
-0.583

# query: PBM binding z-score of entry CCAGACAGGTGAATGGTAACTCAGTCTGGTACGC
-0.302

====

Test system: PPARg:RXRa 90nM:30nM, anti-RXR (NR concentration 90 nM, RXRa partner concentration 30 nM)
protocolNotes: PBM binding z-score (relative to random genomic background probes); higher = stronger binding; sequences stand for … in GC…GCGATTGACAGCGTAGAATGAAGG
attributeMeasured: PBM binding z-score
Lab note: jot the number down without any unit.

For orientation, consider the following solved cases.
| sequenceInput | PBM binding z-score |
| --- | --- |
| CGAACTAGGTCACTGACAGGACAGTGAATAGTAA | 6.09 |
| TTATCAAGGTGAAGGTCGTTGATCCCTCTGTAGA | 3.49 |
| GCTATTAGTTGAAAGGGGAACCGAATGATTCTCG | 2.62 |
| TCTAGTTGGTCACGGACGTCACACACGACGGGTA | 1.95 |
| ATCTCTAGGTAGAGTTCAGTGAAAGATCGATAGA | 1.93 |

# query: PBM binding z-score of entry TCTCGGAGGACACGAAGGTCAGAGCATTCCAGAG
1.74

# query: PBM binding z-score of entry TTACCAAGGTGAGCTGAGGTCCTTGATCCAACTC
-0.0305

# query: PBM binding z-score of entry AATACAGGGTCACTAGGCCAGATTAGGTACGAAT
5.04

====

Tested on: PPARg DBDmut IVT, anti-PPARg (DBD mutation: PPARg1 K132A/R137A, NR concentration 270 nM)
protocolNotes: PBM binding z-score (relative to random genomic background probes); higher = stronger binding; sequences stand for … in GC…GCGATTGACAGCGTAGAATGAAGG
PBM binding z-score values, listed per item
Lab note: jot the number down without any unit.

| sequenceInput | PBM binding z-score |
| --- | --- |
| CGTCCAAGGACAGCAGGTCAGTGAAAGCGACGTG | -0.869 |
| TCTTGTAGATCAAAAGAGGTTAAGAAAGTGCGCT | 0.122 |
| AGTCAAAGTTCATCTAGGTAACGTATGATATGCT | 1.76 |
| ACTGGTTGGTCAGCTGAGGTCACACACAATTCGG | 0.402 |
| ATCGAAAGGTCGATGTGAGTATAGAGAAAGGGAA | 0.629 |
| ATCGATAGGTCGTGAGGTGAGTATACAGAAAGGC | 0.371 |

# query: PBM binding z-score of entry TCATATAGGTAAAGGTGAACGTCGAACGATATGA
1.19

# query: PBM binding z-score of entry TAGCCTAGGTCAAGGGCCAGTATACCACGCGAAC
-0.743

# query: PBM binding z-score of entry ATCGAAAGCTCGTGAGGTGAGTATACAGAAAGGC
0.0739

# query: PBM binding z-score of entry AATACAGGGTCACTAGGCCAGGGTAGGTACGAAT
1.9

# query: PBM binding z-score of entry AGAACGAGGGCACGCTGATTTGATAGCAGAGTAG
-0.124

# query: PBM binding z-score of entry GCTTACGGGTCAAACGTTATAGCATGAATAGAAT
1.38

====

System: RXRa homodimer (NR concentration 180 nM)
protocolNotes: PBM binding z-score (relative to random genomic background probes); higher = stronger binding; sequences stand for … in GC…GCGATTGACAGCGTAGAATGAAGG
Everything with PBM binding z-score lower than 3 is False; everything else, including exactly 3, is True.

Given CCTACTTGGCCAAGGTCATTGATCAGTCAAAGCA , state whether its PBM binding z-score is at least 3.
True

Given AGAATGAGGTTAAGAACAGGGAAACAGAATACAT , state whether its PBM binding z-score is at least 3.
False

Given CCTACTGGGCCCAAAAGGTCATTGATGCCGATAA , state whether its PBM binding z-score is at least 3.
True

Given GATACAGGGTCAGCTCGAGGCCAGAGTATGGAAA , state whether its PBM binding z-score is at least 3.
True

Given CCTGCTAGGTCATGATCAGCTAATCTACAGTATG , state whether its PBM binding z-score is at least 3.
False

Given CTACCAAGGTGAACAAGGTCGTTGAGTACTATTC , state whether its PBM binding z-score is at least 3.
False

====

System: RARa homodimer (NR concentration 270 nM)
protocolNotes: PBM binding z-score (relative to random genomic background probes); higher = stronger binding; sequences stand for … in GC…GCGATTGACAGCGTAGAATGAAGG
Everything with PBM binding z-score lower than -0.1 is NO; everything else, including exactly -0.1, is YES.

Worked set:
| sequenceInput | class |
| --- | --- |
| CGTCAAAGTGCAAGGTAACGTAACAGAAAGCAGC | YES |
| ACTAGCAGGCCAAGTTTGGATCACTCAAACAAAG | NO |

Given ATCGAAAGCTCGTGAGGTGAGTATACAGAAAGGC , state whether its PBM binding z-score is at least -0.1.
NO

Given TTACCGAGGTGAAGGTCGTTGATCCCTCTGTAGA , state whether its PBM binding z-score is at least -0.1.
NO

Given AGAATGAGGTTACCAAAGATCAGGGCAACGCTTG , state whether its PBM binding z-score is at least -0.1.
NO

Given CCTCGGAGGACAACAGGAGGTGAGAGCTGCCAGA , state whether its PBM binding z-score is at least -0.1.
NO

Given CTACCAAGGTGAACAAGTTCGTTGATTACTATTC , state whether its PBM binding z-score is at least -0.1.
YES

Given AGAAAGAGGTTATTAAGATCAGGGAATTGCGGTC , state whether its PBM binding z-score is at least -0.1.
YES
